The reported numbers originate from patent US10851073B2.

Biological target: His tagged PTPN2 (TC45) protein (Homo sapiens)
Sequence (P17706 with tags, fused parts or gaps isoform P17706-2): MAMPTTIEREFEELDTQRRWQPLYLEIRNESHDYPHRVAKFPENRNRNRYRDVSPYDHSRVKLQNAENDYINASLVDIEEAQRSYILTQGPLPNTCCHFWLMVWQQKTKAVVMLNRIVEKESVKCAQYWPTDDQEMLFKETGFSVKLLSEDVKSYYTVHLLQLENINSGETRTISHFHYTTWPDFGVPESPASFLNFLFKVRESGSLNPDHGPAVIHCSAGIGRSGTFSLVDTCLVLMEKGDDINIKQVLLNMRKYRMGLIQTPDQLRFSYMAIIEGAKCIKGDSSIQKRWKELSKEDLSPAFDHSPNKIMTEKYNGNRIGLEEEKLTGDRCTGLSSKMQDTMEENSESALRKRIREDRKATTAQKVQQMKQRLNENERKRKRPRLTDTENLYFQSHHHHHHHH
Give IC50 for every item shown.

Return reported IC50; argument: CC(C)(C)CCNC1CCc2cc(O)c(N3CC(=O)NS3(=O)=O)c(F)c2C1 (stereo not shown) 1 to 10 nM

Quick one: IC50 for O=C1CN(c2c(O)cc3c(c2F)CN(C(=O)NCC2CCCO2)CC3)S(=O)(=O)N1 (stereo not shown) ? 10 to 100 nM

GET /values?readout=IC50&item= CC1(C)CC1CCCN1CCc2cc(O)c(N3CC(=O)NS3(=O)=O)c(F)c2C1 (stereo not shown) 10 to 100 nM

What value of IC50 has been reported for the following compound? CC(C)C(O)CNC1CCc2cc(O)c(N3CC(=O)NS3(=O)=O)c(F)c2C1 (stereo not shown) 1 to 10 nM

Need IC50, item O=C1CN(c2c(O)cc3c(c2F)C[C@H](NCCC2CC2)CC3)S(=O)(=O)N1 (single isomer, unassigned) 1 to 10 nM

Recorded IC50 for O=C1CN(c2c(O)cc3c(c2F)CC(CCC2CC2)CC3)S(=O)(=O)N1 (stereo not shown) , please? 1 to 10 nM

# IC50 lookup, item O=C1CN(c2c(O)cc3c(c2F)CC(NCCC2CCCC2)CC3)S(=O)(=O)N1 (stereo not shown) < 1 nM

Look up IC50 for this compound: CC(C)CCNC[C@H]1Cc2cc(O)c(N3CC(=O)NS3(=O)=O)c(F)c2C1 (single isomer, unassigned) 10 to 100 nM

Looking for the measured IC50 of COC(CCNC1CCc2cc(O)c(N3CC(=O)NS3(=O)=O)c(F)c2C1)C(F)(F)F (stereo not shown) , can you help? 1 to 10 nM

Which IC50 value is on record for CC(C)CCOC1CCc2cc(O)c(N3CC(=O)NS3(=O)=O)c(F)c2C1 (stereo not shown) ? 10 to 100 nM

Item C[Si](C)(C)CCCNC1CCc2cc(O)c(N3CC(=O)NS3(=O)=O)c(F)c2C1 (stereo not shown) has what recorded IC50? 1 to 10 nM

# input compound: O=C1CN(c2c(O)cc3c(c2F)CC(NCC(F)(F)CC2CC2)CC3)S(=O)(=O)N1 (stereo not shown) ; wanted: its IC50 1 to 10 nM

IC50 for O=C1CN(c2c(O)cc3c(c2F)CCC(OCCCC(F)F)C3)S(=O)(=O)N1 (stereo not shown) ? 10 to 100 nM

Could you share which IC50 value was measured for O=C1CN(c2c(O)cc3c(c2F)C[C@H](NCCCC(F)(F)F)CC3)S(=O)(=O)N1 (single isomer, unassigned) ? 1 to 10 nM

Could you share which IC50 value was measured for O=C1CN(c2c(O)cc3c(c2F)CC(NCCC2(C(F)(F)F)CC2)CC3)S(=O)(=O)N1 (stereo not shown) ? 1 to 10 nM

// IC50 lookup, key: NCC1Cc2cc(O)c(N3CC(=O)NS3(=O)=O)c(F)c2C1 (stereo not shown) [Compound 267, 2,2,2-trifluoroacetate] 10 to 100 nM
